assayed target: human polymerase alpha (Homo sapiens)
Construct: purchased Replizyme Ltd (Heslington, York, UK)
Sequence (P09884 whole entry): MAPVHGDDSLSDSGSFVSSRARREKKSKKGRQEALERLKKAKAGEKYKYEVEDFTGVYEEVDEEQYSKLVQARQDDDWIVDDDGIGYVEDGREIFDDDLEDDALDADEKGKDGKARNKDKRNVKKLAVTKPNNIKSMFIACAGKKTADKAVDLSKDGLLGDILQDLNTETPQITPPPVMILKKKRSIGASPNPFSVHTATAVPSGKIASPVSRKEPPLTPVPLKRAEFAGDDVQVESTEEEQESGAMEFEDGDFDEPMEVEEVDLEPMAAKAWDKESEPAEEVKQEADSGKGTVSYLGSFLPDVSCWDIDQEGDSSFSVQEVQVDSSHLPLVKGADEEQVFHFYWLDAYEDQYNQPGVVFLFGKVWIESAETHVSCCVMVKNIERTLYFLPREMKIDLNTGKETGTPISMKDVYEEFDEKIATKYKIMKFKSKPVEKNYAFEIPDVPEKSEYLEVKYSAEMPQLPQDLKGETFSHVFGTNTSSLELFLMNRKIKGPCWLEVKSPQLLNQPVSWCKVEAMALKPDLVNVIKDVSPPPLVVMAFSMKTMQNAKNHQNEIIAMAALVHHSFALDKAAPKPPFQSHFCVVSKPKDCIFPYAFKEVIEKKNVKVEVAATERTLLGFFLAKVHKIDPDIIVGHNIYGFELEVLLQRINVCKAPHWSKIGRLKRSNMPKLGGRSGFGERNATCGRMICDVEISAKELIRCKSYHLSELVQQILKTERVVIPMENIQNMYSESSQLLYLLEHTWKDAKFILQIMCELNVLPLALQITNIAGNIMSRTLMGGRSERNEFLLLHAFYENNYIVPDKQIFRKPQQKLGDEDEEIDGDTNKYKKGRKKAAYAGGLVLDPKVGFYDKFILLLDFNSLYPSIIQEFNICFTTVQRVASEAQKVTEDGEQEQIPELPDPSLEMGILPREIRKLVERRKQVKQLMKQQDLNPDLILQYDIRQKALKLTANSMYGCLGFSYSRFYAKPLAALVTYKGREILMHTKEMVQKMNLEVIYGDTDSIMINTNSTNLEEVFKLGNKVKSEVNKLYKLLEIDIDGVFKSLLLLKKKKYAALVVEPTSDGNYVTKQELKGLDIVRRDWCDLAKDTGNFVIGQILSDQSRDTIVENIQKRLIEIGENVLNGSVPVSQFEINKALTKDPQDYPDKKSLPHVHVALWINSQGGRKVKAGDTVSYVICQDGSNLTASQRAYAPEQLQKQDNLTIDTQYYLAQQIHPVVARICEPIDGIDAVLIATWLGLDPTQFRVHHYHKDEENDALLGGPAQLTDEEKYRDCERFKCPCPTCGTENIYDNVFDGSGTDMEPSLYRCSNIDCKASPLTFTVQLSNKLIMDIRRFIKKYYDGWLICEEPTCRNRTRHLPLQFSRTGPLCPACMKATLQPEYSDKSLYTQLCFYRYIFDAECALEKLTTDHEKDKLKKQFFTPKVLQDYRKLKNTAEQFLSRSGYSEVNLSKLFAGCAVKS
run description: Homotemplate enzymatic assay, polymerase alpha
Assay type: biochemical
condition summary: four concentrations, homotemplate format
quantity measured: IC50

{"compound": "COC(=O)c1ccc(COc2ccc(NC(=O)N[C@@H](CCCCN)C(=O)Nc3ccc(C)cc3)cc2)cc1 [Compound 199]", "IC50": "~4 µM"}
{"compound": "Cc1ccc(NC(=O)[C@@H](CCCCN)NC(=O)Nc2ccc3c(c2)Cc2ccccc2-3)cc1 [Compound 173]", "IC50": "< 4 µM"}
{"compound": "Cc1ccc(NC(=O)[C@H](CCCCN)NC(=O)Nc2ccc(OCc3ccccc3)cc2)cc1 [Compound 2]", "IC50": "< 4 µM"}

Request: Output measured IC50 for this item: Cc1cc2cc(NC(=O)[C@H](CCCNC(=O)CN)NC(=O)Nc3ccc4c(c3)Cc3ccccc3-4)ccc2[nH]1 [Compound 297]
Result: < 4 µM
